Provenance of the data: patent US8889677B2

Entries and their measured pEC50 follow.
- target.desc: human recombinant mGluR5 (Homo sapiens, UniProt P41594)
- Construct: tetracycline removed 3-7 days before the assay
- Sequence (P41594 21-1212): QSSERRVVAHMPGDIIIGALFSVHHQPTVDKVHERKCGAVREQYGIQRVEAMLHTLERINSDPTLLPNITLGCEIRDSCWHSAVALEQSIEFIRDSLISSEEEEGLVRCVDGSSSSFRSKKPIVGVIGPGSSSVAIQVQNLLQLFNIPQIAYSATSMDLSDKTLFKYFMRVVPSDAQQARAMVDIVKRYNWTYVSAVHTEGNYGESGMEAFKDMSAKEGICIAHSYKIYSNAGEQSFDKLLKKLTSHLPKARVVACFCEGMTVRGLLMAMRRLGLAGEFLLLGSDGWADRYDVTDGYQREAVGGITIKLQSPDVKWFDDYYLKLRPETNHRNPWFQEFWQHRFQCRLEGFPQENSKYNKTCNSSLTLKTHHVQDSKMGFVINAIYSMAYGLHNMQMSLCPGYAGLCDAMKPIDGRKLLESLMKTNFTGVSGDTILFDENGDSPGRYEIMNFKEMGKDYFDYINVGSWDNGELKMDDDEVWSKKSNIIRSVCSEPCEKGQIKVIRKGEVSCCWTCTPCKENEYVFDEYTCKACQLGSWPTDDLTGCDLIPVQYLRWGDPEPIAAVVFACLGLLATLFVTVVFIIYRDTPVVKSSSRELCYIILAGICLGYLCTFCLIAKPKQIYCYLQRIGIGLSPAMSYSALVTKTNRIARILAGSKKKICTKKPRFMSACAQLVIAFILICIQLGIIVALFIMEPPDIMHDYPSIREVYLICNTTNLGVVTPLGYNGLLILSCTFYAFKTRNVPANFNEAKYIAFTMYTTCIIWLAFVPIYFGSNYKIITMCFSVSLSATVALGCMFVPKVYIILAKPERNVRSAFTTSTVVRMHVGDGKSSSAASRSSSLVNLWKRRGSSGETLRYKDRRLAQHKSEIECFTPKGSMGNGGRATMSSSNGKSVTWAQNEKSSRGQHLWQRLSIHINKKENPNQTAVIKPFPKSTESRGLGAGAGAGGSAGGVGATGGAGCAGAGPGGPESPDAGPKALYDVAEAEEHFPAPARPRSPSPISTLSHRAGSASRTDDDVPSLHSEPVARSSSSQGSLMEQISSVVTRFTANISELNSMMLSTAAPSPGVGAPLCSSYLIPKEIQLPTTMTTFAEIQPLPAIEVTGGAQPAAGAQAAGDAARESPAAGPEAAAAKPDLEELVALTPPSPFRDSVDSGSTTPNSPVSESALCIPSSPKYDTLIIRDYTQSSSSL
- test.protocol: positive modulation of mGluR5, calcium based FLIPR assay in HEK 293 cells
- experimental.setup: HEK 293 cell line expressing human recombinant mGluR5; EC50 of the modulation of the glutamate response (glutamate approx. 5% basal stimulation); peak height of Ca release fluorescence signal
Reminder that pEC50 means the negative base-10 logarithm of the concentration expressed in mol/L.

Here are 3 molecules together with their reported answers.
| molecule | pEC50 |
| --- | --- |
| CN(C)c1cc(N2CCN(C(=O)Cn3nc(-c4ccc(F)cc4)nc3-c3ccc(F)cc3)CC2)ncn1 | 6.78 |
| CN(C)c1cc(N2CCN(C(=O)Cn3nc(-c4ccc(F)cc4)nc3-c3ccc(F)cc3)CC2)ccn1 | 6.00 |
| CCC(C)c1nc(-c2ccc(F)c(C)c2)nn1CC(=O)N1CCN(c2cc(OC)ccn2)CC1 (stereo not drawn) | 6.17 |

stdin: // lookup pEC50 for `O=C(Cn1nc(-c2ccc(F)cc2)nc1-c1ccc(F)cc1)N1CCN(c2cc(OCCn3ccnc3)ncn2)CC1`
stdout: 6.97

stdin: # query: pEC50 of entry `COc1cc(N2CCN(C(=O)Cn3nc(-c4cccc(C)c4)nc3-c3ccccc3)CC2)ncn1`
stdout: 7.01

stdin: Given the entry Cc1cc(-c2nc(C3CCCC(C)C3)n(CC(=O)N3CCN(c4ccccn4)CC3)n2)ccc1F (stereo not drawn) , report its measured pEC50.
stdout: 6.06

stdin: Query: pEC50; subject: `Cc1cc(-c2nc(C3CCCC3)n(CC(=O)N3CCN(c4ccccn4)CC3)n2)ccc1F`
stdout: 6.58

stdin: Can you share its pEC50? I mean this molecule: `O=C(Cn1nc(-c2ccc(F)cc2)nc1-c1ccc(F)cc1)N1CCN(c2cc(O[C@H]3COC[C@H]3O)ncn2)CC1`
stdout: 6.65

stdin: What value of measured pEC50 is listed for `CC(C)Nc1cc(N2CCN(C(=O)Cn3nc(-c4ccc(F)cc4)nc3-c3ccc(F)cc3)CC2)ncn1` ?
stdout: 6.82

---

Listing of entries alongside the reported log10(EC50).
- target.desc: human recombinant mGluR5 (Homo sapiens)
- Construct: tetracycline removed 3-7 days before the assay
- test.protocol: positive modulation of mGluR5, calcium based FLIPR assay in HEK 293 cells
- experimental.setup: HEK 293 cell line expressing human recombinant mGluR5; EC50 of the modulation of the glutamate response (glutamate approx. 5% basal stimulation); peak height of Ca release fluorescence signal
Values reflect log10 of reported EC50 (nM).

| compound | target.desc | log10(EC50) |
| --- | --- | --- |
| CN1CCN(c2cc(N3CCN(C(=O)Cn4nc(-c5ccc(F)cc5)nc4-c4ccc(F)cc4)CC3)ncn2)CC1 [Example 07.08.23.] | human recombinant mGluR5 (Homo sapiens) | 3.20 |
| O=C(Cn1nc(-c2ccc(F)cc2)nc1-c1ccc(F)cc1)N1CCN(c2cc(OCCCO)ncn2)CC1 [Example 07.09.20.] | human recombinant mGluR5 (Homo sapiens) | 1.81 |

stdin: # lookup: log10(EC50) of Cc1ccnc(N2CCN(C(=O)Cn3nc(-c4ccc(F)cn4)nc3-c3ccc(F)cc3)CC2)c1 [Example 07.04.138.]
stdout: 3.00

stdin: Requested read-out: log10(EC50). Entry: COc1cncc(N2CCN(C(=O)Cn3nc(-c4ccc(F)cc4)nc3-c3ccc(F)cc3)CC2)n1 [Example 07.03.18.]
stdout: 2.25

stdin: If you can, please state the reported log10(EC50) value of O=C(Cn1nc(-c2ccc(F)cc2)nc1-c1ccc(F)cc1)N1CCN(c2nccc(C(F)(F)F)n2)CC1 [Example 07.03.21.] .
stdout: 2.44
